Target: Nuclear receptor coactivator 3 (Homo sapiens) (UniProt Q9Y6Q9)
Sequence (Q9Y6Q9 whole entry, looked up): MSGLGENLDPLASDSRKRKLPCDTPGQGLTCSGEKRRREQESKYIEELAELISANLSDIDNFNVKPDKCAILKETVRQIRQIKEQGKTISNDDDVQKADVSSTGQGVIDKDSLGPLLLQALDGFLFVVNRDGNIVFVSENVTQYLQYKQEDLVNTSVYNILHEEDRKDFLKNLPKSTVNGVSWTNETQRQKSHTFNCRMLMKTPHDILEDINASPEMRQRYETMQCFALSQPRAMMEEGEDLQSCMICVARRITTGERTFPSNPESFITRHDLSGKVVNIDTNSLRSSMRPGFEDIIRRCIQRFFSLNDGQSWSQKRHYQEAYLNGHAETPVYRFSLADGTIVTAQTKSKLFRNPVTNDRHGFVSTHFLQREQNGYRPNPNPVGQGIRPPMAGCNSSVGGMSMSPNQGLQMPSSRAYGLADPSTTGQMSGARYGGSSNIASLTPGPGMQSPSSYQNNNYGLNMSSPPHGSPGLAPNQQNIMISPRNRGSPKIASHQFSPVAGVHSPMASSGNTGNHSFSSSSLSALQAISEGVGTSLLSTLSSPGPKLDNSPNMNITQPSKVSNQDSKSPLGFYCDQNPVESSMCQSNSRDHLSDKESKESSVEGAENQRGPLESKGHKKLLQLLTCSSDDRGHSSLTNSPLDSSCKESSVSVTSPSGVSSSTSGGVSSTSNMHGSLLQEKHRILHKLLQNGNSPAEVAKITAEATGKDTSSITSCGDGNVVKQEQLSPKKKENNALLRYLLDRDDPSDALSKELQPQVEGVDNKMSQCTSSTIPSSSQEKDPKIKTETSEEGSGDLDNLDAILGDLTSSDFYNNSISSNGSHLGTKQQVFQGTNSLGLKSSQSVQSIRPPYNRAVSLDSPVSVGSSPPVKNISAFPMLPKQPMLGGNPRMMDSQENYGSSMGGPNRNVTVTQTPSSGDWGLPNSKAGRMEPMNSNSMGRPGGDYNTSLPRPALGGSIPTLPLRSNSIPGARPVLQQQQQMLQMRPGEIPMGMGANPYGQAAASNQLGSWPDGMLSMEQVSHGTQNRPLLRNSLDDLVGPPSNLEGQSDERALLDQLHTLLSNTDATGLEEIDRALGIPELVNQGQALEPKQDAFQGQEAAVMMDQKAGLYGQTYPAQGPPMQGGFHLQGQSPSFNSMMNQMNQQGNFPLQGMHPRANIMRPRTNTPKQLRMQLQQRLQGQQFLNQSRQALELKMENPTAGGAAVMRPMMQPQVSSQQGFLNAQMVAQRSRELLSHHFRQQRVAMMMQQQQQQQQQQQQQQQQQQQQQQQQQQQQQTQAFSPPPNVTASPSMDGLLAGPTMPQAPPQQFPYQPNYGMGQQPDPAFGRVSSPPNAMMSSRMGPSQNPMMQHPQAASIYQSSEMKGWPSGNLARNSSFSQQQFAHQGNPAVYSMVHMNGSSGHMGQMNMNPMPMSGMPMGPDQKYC
Assay: SRC3 coactivator transcriptional activity inhibitors, confirmation, cell-based, luminescence, quadruplicate (AID 588792);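 also: 0% = DMSO treated cells and 100% = gossypol at 36 µM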
Conditions: HEK293 GAL4-SRC3 luciferase reporter, at 3.6 µM, hits give high values
quantity_kind: inhibition (%)
Numbers only; they are read as %.

Recorded results for 4 compounds are shown here.
CC(C)(CC(=O)O)CC(=O)Nc1cc(C(F)(F)F)cc(C(F)(F)F)c1; 6.02
O=C(NCc1cccnc1)/C(=C\c1ccc(-c2cccc(Cl)c2)o1)S(=O)(=O)c1ccccc1; 37.8
N=c1c2c(n(Cc3ccc(Cl)c(Cl)c3)c3c1CCC3)CCCC2; 44.7
COC(=O)Cc1[nH]n(-c2nc3ccccc3s2)c(=O)c1C(C)=Nc1ccc(C)cc1; 90.5

Query string: Fill in the blank: the reported inhibition of "CCCCCCCCCn1ccc(=N)cc1" is ____.
Result string: 68.9
